These measurements were taken from patent US11021457B2.

- tested-target: LC3B (Homo sapiens (Human), UniProt Q9GZQ8)
- test-protocol: Fluorescence polarization experiment targeting LC3B (GST-LC3B with FITC-labeled peptide)
- test-context: GST-LC3B 180 nM, FITC-labeled peptide 18 nM, 25° C.
pIC50: −log10 of the molar value.
Reported values of pIC50 for individual entries

Examples with answers:
{"molecule": "CC(C)[C@H](NC(=O)CN1CCN(CCNC=C2C(=O)CC(c3ccccc3)CC2=O)CC1)C(=O)N[C@@H](CCCNC(N)=O)C(=O)Nc1cccc2c1CN(C1CCC(=O)NC1=O)C2=O (some centres unmarked)", "pIC50": "4.00 to 4.82"}
{"molecule": "O=C1CCC(N2Cc3c(NC=C4C(=O)CC(c5cc(O)ccc5Br)CC4=O)cccc3C2=O)C(=O)N1 (centres unmarked)", "pIC50": "> 5.52"}
{"molecule": "COc1cc(Br)c(C2CC(=O)C(=CNc3cccc4c3CN(C3CCC(=O)NC3=O)C4=O)C(=O)C2)cc1OC (centres unmarked)", "pIC50": "> 5.52"}
{"molecule": "O=C1CCC(N2Cc3c(NC=C4C(=O)CC(c5cccc6[nH]ncc56)CC4=O)cccc3C2=O)C(=O)N1 (centres unmarked)", "pIC50": "> 5.52"}
{"molecule": "O=C1CCC(N2Cc3c(NC=C4C(=O)CC(c5cc6[nH]ccc6cc5Br)CC4=O)cccc3C2=O)C(=O)N1 (centres unmarked)", "pIC50": "> 5.52"}
{"molecule": "O=C1CCC(N2Cc3c(NC=C4C(=O)CC(c5c(Br)ccc(F)c5Cl)CC4=O)cccc3C2=O)C(=O)N1 (centres unmarked)", "pIC50": "> 5.52"}

Next, consider the following molecule.
LC3B (Homo sapiens (Human), UniProt Q9GZQ8) / pIC50 / O=C1CCC(N2Cc3c(NC=C4C(=O)CC(c5c(Cl)ccc6[nH]ccc56)CC4=O)cccc3C2=O)C(=O)N1 (centres unmarked) : value?
> 5.52
